- MEASURED_TARGET: NHERF4_4, Q86UT5
- Sequence (Q86UT5 464-550): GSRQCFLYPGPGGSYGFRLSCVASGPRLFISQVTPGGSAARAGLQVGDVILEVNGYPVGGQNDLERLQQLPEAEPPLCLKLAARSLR
- METHOD_DESCRIPTION: holdup assay
- Parameters: key: below the threshold = too weak to quantify, mostly under pKd 3.1 to 4
- CONDITIONS: plain residues with an end cap or a label only (N-terminal biotin on a linker: ttds)

[
  {
    "BINDER": "GQDSREETQL [KCNT2, Q6UVM3]",
    "pKd": "below the threshold"
  },
  {
    "BINDER": "SVWLRKETRV [CYSLTR2, Q9NS75]",
    "pKd": "below the threshold"
  },
  {
    "BINDER": "IDNDTESTAL [ARHGAP17, Q68EM7]",
    "pKd": "below the threshold"
  }
]

These measurements were taken from paper PMC9482650.
